assaySummary: Toxicokinetics of cereulide in rabbits after a single intravenous injection (plasma, UPLC-MS/MS)
Type: in vivo, New Zealand White rabbits
statedConditions: both sexes, New Zealand White, rabbit, plasma, iv, 5 ug, single i.v. 5 μg cereulide/rabbit, plasma, UPLC-MS/MS, non-compartmental, n = 8, mean ± SD, read-out: MRTlast, mean retention time until the last time point
assayMetric: MRT

Entry CC(C)C[C@H]1OC(=O)[C@H](C(C)C)NC(=O)[C@H](C(C)C)OC(=O)[C@@H](C)NC(=O)[C@@H](CC(C)C)OC(=O)[C@H](C(C)C)NC(=O)[C@H](C(C)C)OC(=O)[C@@H](C)NC(=O)[C@@H](CC(C)C)OC(=O)[C@H](C(C)C)NC(=O)[C@H](C(C)C)OC(=O)[C@@H](C)NC1=O [cereulide] ; MRT = 9.6 h
